- SYSTEM: human PDE2A1 (Homo sapiens (Human))
- Sequence (O00408 other isoform, or with tags, fused parts or gaps): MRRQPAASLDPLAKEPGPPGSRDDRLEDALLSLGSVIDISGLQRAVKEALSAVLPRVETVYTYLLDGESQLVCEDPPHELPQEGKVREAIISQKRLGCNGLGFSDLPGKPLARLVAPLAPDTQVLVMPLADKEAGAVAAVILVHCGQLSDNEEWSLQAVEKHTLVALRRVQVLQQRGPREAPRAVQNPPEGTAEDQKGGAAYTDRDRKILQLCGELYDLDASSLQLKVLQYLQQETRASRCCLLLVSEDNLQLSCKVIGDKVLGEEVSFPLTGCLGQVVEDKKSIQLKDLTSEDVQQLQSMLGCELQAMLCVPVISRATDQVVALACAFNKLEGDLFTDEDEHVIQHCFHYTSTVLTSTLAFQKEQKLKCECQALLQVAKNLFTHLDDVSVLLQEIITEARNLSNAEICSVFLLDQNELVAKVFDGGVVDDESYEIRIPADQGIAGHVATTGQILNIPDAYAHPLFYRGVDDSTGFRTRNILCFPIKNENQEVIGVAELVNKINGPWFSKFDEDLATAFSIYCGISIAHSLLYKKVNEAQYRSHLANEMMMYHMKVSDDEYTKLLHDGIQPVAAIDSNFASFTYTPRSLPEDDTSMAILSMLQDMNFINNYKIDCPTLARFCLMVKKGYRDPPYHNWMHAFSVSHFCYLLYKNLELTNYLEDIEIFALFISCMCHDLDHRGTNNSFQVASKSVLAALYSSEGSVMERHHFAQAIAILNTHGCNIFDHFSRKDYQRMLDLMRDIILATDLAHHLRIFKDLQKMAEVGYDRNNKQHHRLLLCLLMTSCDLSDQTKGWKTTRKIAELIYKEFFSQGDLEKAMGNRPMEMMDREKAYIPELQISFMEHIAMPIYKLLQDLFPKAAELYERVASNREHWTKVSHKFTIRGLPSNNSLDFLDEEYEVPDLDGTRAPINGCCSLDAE
- PROTOCOL: IMAP FP PDE selectivity panel, human PDE2A1
- Type: biochemical
- STUDY CONDITIONS: Human PDE2, Lab A; read-out: Human PDE2 Ki (nM) - Lab A
- Experimental: Selectivity for PDE2, as compared to other PDE families, was assessed using the IMAP® technology. Human PDE 10A2 enzyme was prepared from cytosolic fractions of transiently transfected HEK cells. […] Assays for PDE 1 through 11 were performed in parallel at room temperature in 384-well microtiter plates with an incubation volume of 20.2 μL. […] The intrinsic PDE2 inhibitory activity of a compound which may be used in accordance with the present invention may be determined by these assays.
# if measured Ki < 30 nM: 1.0  # else: 0.0

## Task Quick check: Ki of CCc1ccc(C(C)NC(=O)c2cc(=O)[nH]c(C3CC3)n2)cc1 (centres unmarked) [Example 194] under 30 nM?
## Result 1.0

## Task Problem: For the compound O=C(NC1(c2ccc(OC(F)(F)F)c(F)c2)CC1)c1cc(=O)[nH]c(-c2ccccc2)n1 [Example 157] , is Ki under 30 nM?
## Result 1.0

## Task Please state whether Ki is below 30 nM for O=C(N[C@@H](c1ccc(C(F)(F)F)c(F)c1)C1CC1)c1cc(=O)[nH]c(C2CC2)n1 [Example 210]
## Result 1.0

## Task Consider Cc1nc(C(=O)N[C@H](C)c2ccc(OC(F)(F)F)cc2)cc(=O)[nH]1 [Example 9] . Does its Ki lie strictly below 30 nM?
## Result 1.0

## Task Answer whether the compound COc1cc(OC(F)(F)F)ccc1C(C)NC(=O)c1cc(=O)[nH]c(C2CC2)n1 (centres unmarked) [Example 230] has Ki strictly less than 30 nM
## Result 1.0

## Task Item Cc1nc(C(=O)N[C@@H](c2ccc(C(F)(F)F)cc2)C2CC2)cc(=O)[nH]1 [Example 69] : Ki beneath 30 nM, strictly?
## Result 1.0

## Task Consider CCc1nc(C(=O)N[C@@H](C)c2ccc(C(F)(F)F)cc2)cc(=O)[nH]1 [Example 135] . Does its Ki lie strictly below 30 nM?
## Result 0.0

## Task Lab note: Ki threshold 30 nM. Does this compound come in strictly under it? Cc1nc(C(=O)N[C@@H](c2ccc(SC(F)(F)F)cc2)C(C)C)cc(=O)[nH]1 [Example 30]
## Result 1.0

## Task Take the compound COCc1nc(C(=O)N[C@@H](c2ccc(C(F)(F)F)c(F)c2)C2CC2)cc(=O)[nH]1 [Example 115] and say whether its Ki is less than 30 nM.
## Result 1.0

## Task In the record for C[C@@H](NC(=O)c1cc(=O)[nH]c(C2CC2)n1)c1ccc(S(F)(F)(F)(F)F)cc1 [Example 227] , is Ki less than 30 nM?
## Result 1.0

## Task Determine if CC(C)(NC(=O)c1cc(=O)[nH]c(-c2ncccn2)n1)c1ccc(C(F)(F)F)c(F)c1 [Example 82] shows Ki strictly lower than 30 nM.
## Result 0.0

## Task Please indicate whether the reported Ki of CC(C)(NC(=O)c1cc(=O)[nH]c(C2CC2)n1)c1ccc(OC(F)(F)F)c(F)c1 [Example 198] is strictly below 30 nM.
## Result 0.0

## Task Please state whether Ki is below 30 nM for COc1ccc2cc(C(C)NC(=O)c3cc(=O)[nH]c(C)n3)ccc2c1 (single isomer, unassigned) [Example 313]
## Result 0.0

## Task Threshold test, Ki < 30 nM: Cc1cc([C@@H](C)NC(=O)c2cc(=O)[nH]c(C3CC3)n2)ccc1C(F)(F)F [Example 231]
## Result 1.0

## Task Regarding CC(C)(NC(=O)c1cc(=O)[nH]c(-c2ccccc2)n1)c1ccc(C(F)(F)F)cc1 [Example 280] , kindly confirm whether its Ki is beneath 30 nM.
## Result 1.0

## Task Does the reported Ki of Cc1nc(C(=O)N[C@@H](c2ccc(SC(F)(F)F)c(F)c2)C(C)C)cc(=O)[nH]1 [Example 53] stay below 30 nM?
## Result 1.0

## Task Threshold test, Ki < 30 nM: O=C(NC1(c2ccc(OC(F)(F)F)c(F)c2)CC1)c1cc(=O)[nH]c(C2CC2)n1 [Example 201]
## Result 1.0

## Task Input Cc1nc(C(=O)NC(C)(C)c2ccc(OC(F)(F)F)c(F)c2)cc(=O)[nH]1 [Example 48] ; condition: Ki strictly below 30 nM. Does it hold?
## Result 0.0

## Task Lab log: compare recorded Ki with 30 nM; is it strictly lower for Cc1nc(C(=O)NC2(c3ccc(C(F)(F)F)cc3)CC2)cc(=O)[nH]1 [Example 1] ?
## Result 1.0

## Task Consider COc1ccc(Cc2nc(C(=O)N[C@H](C)c3ccc(C(F)(F)F)cc3)cc(=O)[nH]2)cc1 [Example 136] . Does its Ki lie strictly below 30 nM?
## Result 1.0

## Task # TODO verify Ki < 30 nM strictly for this compound: O=C(N[C@@H](c1ccc(OC(F)(F)F)cc1)C1CC1)c1cc(=O)[nH]c(-c2ncccn2)n1 [Example 92]
## Result 1.0

## Task Please check: Ki for CC(C)(NC(=O)c1cc(=O)[nH]c(-c2ccccc2)n1)c1ccc(OC(F)(F)F)cc1 [Example 281] , strictly under 30 nM or not?
## Result 0.0

## Task Here's an entry: O=C(N[C@@H](c1ccc(SC(F)(F)F)cc1)C1CC1)c1cc(=O)[nH]c(-c2ncccn2)n1 [Example 95] . Is its Ki below 30 nM?
## Result 1.0

## Task I'd appreciate it if you could check whether Cc1nc(C(=O)NC(C)(C)c2ccc(C(F)(F)F)cc2)cc(=O)[nH]1 [Example 272] has Ki smaller than 30 nM.
## Result 0.0

## Task Is Ki strictly under 30 nM for the entry C[C@@H](NC(=O)c1cc(=O)[nH]c(-c2ccccc2)n1)c1cc(F)c(C(F)(F)F)c(F)c1 [Example 184] ?
## Result 1.0

## Task Decide: Ki of O=C(NC1(c2ccc(C(F)(F)F)cc2)CCC1)c1cc(=O)[nH]c(-c2ccccc2)n1 [Example 278] strictly below 30 nM?
## Result 1.0

## Task For Cc1nc(C(=O)NC(C)c2ccc(C3CC3)cc2)cc(=O)[nH]1 (centres unmarked) [Example 42] , is the recorded Ki below the cut-off of 30 nM?
## Result 0.0

## Task Input O=C(NC(CO)c1ccc(C(F)(F)F)cc1)c1cc(=O)[nH]c(C2CC2)n1 (centres unmarked) [Example 294] ; condition: Ki strictly below 30 nM. Does it hold?
## Result 0.0

## Task State whether 30 nM exceeds Ki recorded for Cc1nc(C(=O)N[C@@H](c2ccc(SC(F)(F)F)cc2)C2CC2)cc(=O)[nH]1 [Example 41] .
## Result 1.0

## Task Ki under 30 nM? Item: O=C(NC1(c2ccc(C(F)(F)F)c(F)c2)CC1)c1cc(=O)[nH]c(C2CC2)n1 [Example 202]
## Result 1.0

## Task Consider the compound CC(C)[C@@H](NC(=O)c1cc(=O)[nH]c(-c2ncccn2)n1)c1ccc(OC(F)(F)F)cc1 [Example 75] . Is its Ki strictly less than 30 nM?
## Result 1.0
